Biological target: 17β-Hydroxysteroid Dehydrogenase Type 2 Enzyme (17β-HSD2) (Homo sapiens, UniProt P37059)
Construct: made in house; host or cells: Sf-9 insect cells (baculovirus)
Sequence (P37059 whole entry): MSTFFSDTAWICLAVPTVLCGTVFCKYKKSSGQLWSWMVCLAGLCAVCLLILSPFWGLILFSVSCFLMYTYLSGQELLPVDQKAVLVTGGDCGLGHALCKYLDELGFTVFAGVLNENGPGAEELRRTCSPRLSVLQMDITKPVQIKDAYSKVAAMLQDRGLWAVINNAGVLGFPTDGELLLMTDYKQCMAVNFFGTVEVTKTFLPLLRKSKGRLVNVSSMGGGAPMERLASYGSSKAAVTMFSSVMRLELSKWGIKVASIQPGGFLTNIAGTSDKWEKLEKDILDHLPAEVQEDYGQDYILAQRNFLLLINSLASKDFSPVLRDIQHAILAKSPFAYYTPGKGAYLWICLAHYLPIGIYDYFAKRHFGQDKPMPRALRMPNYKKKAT
Test: Inhibition of the 17β-hydroxysteroid dehydrogenase type 2 enzyme, 3H-testosterone conversion
Assay type: biochemical
Conditions: inhibitor at 10 μM
Record yes whenever inhibition at 10 µM is at 10% or higher; record no when lower.

Problem: Threshold query (inhibition at 10 µM >= 10%) on N#CC(=C1CCN(C(=O)N2CCC(O)CC2)CC1)c1n[nH]c2ccccc12
Solution: yes

Problem: Exam item: decide whether the reported inhibition at 10 µM for CCN(CC)C(=O)N1CCC(=C(C#N)c2ccc(C(F)(F)F)cc2)CC1 is at least 10%.
Solution: yes

Problem: Decide: inhibition at 10 µM of N#CC(=C1CCN(C(=O)N2CCC(O)CC2)CC1)c1ccc(Cl)cc1 >= 10%?
Solution: yes

Problem: Kindly determine if inhibition at 10 µM recorded for N#CC(=C1CCN(C(=O)N2CCC(CO)CC2)CC1)c1ccc(F)cc1F is above or exactly 10%.
Solution: no

Problem: Would you say COCC1CCN(C(=O)N2CCC(=C(C#N)c3ccc(F)cc3F)CC2)CC1 shows inhibition at 10 µM at minimum 10%?
Solution: yes

Problem: Given the entry CC(=O)n1ncc2c(C(C#N)=C3CCN(C(=O)N4CCc5nocc5C4)CC3)cccc21 , answer whether its inhibition at 10 µM meets or surpasses 10%.
Solution: yes

Problem: Assess whether reported inhibition at 10 µM for N#CC(=C1CCN(C(=O)N2CCc3[nH]ncc3C2)CC1)c1ccc(F)cc1 sits at 10% or higher.
Solution: yes

Problem: Does the reported inhibition at 10 µM for N#CC(=C1CCN(C(=O)N2CCC(CCO)CC2)CC1)c1ccc(F)cc1 fall at or above the 10% mark?
Solution: no

Problem: For this molecule, is measured inhibition at 10 µM 10% or higher? N#CC(=C1CCN(C(=O)N2C[C@@H]3CC[C@@H]2C3)CC1)c1ccc(F)cc1F
Solution: no

Problem: Could you tell me if the measured inhibition at 10 µM of N#CC(=C1CCN(C(=O)N2CCn3nncc3C2)CC1)c1ccc(C(F)(F)F)cc1 reaches 10% or more?
Solution: no

Problem: inhibition at 10 µM >= 10% for N#CC(=C1CCN(C(=O)N2CCn3cccc3C2)CC1)c1ccc(F)cc1 ?
Solution: yes

Problem: Is it the case that N#CC(=C1CCN(C(=O)N2CCC(CCO)CC2)CC1)c1ccc(Cl)cc1 has inhibition at 10 µM reaching or exceeding 10%?
Solution: yes

Problem: Has N#CC(=C1CCN(C(=O)N2CCC(CO)CC2)CC1)c1cccc(Cl)c1 a recorded inhibition at 10 µM greater than or equal to 10%?
Solution: yes

Problem: Check the entry N#CC(=C1CCN(C(=O)N2CCOCC2)CC1)c1ccc(C(F)(F)F)cc1 : does inhibition at 10 µM equal or exceed 10%?
Solution: no

Problem: Is the recorded value of inhibition at 10 µM equal to or greater than 10% for this molecule? N#CC(=C1CCN(C(=O)N2CC(C#N)C2)CC1)c1ccc(F)cc1
Solution: no

Problem: Decide: inhibition at 10 µM of N#CC(=C1CCN(C(=O)N2CCC(O)CC2)CC1)c1cccc(Cl)c1 >= 10%?
Solution: yes

Problem: Item N#CC(=C1CCN(C(=O)N2CCc3nocc3C2)CC1)c1ccc(F)cc1 with inhibition at 10 µM of 10% or above?
Solution: no

Problem: Is inhibition at 10 µM for N#CC(=C1CCN(C(=O)N2CCC(O)CC2)CC1)c1cccc2[nH]ncc12 at or above 10%?
Solution: no

Problem: Is reported inhibition at 10 µM greater than or equal to 10% here: CCN(CC)C(=O)N1CCC(=C(C#N)c2ccc(F)cn2)CC1
Solution: yes

Problem: Is it the case that N#CC(=C1CCN(C(=O)N2CCn3cncc3C2)CC1)c1ccc(OC(F)(F)F)cc1 has inhibition at 10 µM reaching or exceeding 10%?
Solution: no

Problem: Does the reported inhibition at 10 µM for CCN(CC)C(=O)N1CCC(=C(C#N)c2ccc(Cl)s2)CC1 fall at or above the 10% mark?
Solution: yes

Problem: Does N#CC(=C1CCN(C(=O)N2CCc3[nH]ncc3C2)CC1)c1cc(F)cc(F)c1 have a reported inhibition at 10 µM of at least 10%?
Solution: yes

Problem: Dear colleague, could you confirm whether N#CC(=C1CCN(C(=O)N2C[C@@H]3CC[C@@H]2C3)CC1)c1ccc(F)c(F)c1 has inhibition at 10 µM at or above 10%?
Solution: yes

Problem: Hi, just wondering whether N#CC(=C1CCN(C(=O)N2CCC(CO)CC2)CC1)c1ccc(F)c(F)c1 shows inhibition at 10 µM of 10% or higher.
Solution: no

Problem: Is it the case that N#CC(=C1CCN(C(=O)N2CCc3[nH]ncc3C2)CC1)c1ccc(Cl)cc1 has inhibition at 10 µM reaching or exceeding 10%?
Solution: yes

Problem: I'd appreciate it if you could say whether N#CC(=C1CCN(C(=O)N2CCC(O)CC2)CC1)c1cncc(Cl)c1 has inhibition at 10 µM at least equal to 10%.
Solution: yes

Problem: Hi, just wondering whether N#CC(=C1CCN(C(=O)N2CCn3ncnc3C2)CC1)c1cccc(Cl)c1 shows inhibition at 10 µM of 10% or higher.
Solution: no

Problem: Could you verify whether the entry N#CC(=C1CCN(C(=O)N2CC[C@H](O)C2)CC1)c1ccc(F)cc1 shows inhibition at 10 µM of no less than 10%?
Solution: yes

Problem: Item N#CC(=C1CCN(C(=O)N2CCn3ncnc3C2)CC1)c1ccc(Cl)s1 with inhibition at 10 µM of 10% or above?
Solution: no

Problem: Is inhibition at 10 µM at least 10%? Consider N#CC(=C1CCN(C(=O)N2CCC(O)CC2)CC1)c1cccc2cn[nH]c12
Solution: no

Problem: Determine whether this molecule has inhibition at 10 µM no lower than 10%: N#CC(=C1CCN(C(=O)N2CCn3cncc3C2)CC1)c1ccc(F)cc1
Solution: no
